Values from PubChem BioAssay

# experimental.system: Carbonic anhydrase 2 (Homo sapiens) (UniProt P00918)
# protocol.description: compounds binding carbonic anhydrase 2 – biochemical, small-molecule microarray, Alexa647-labelled CAII, profiling panel (AID 1122)
# condition.summary: CAII-A647 binding fluorescence, higher = more signal
// composite z-score lookup, one value per entry
Quick one: just the number, no unit, thanks!

# count of solved cases: 6
COc1ccc([Si](C)(C)[C@H]2[C@H](CCO)O[C@@]3(C(=O)N(Cc4cccc(N(C=O)c5ccccc5)c4)c4ccccc43)[C@@H]2C)cc1 | 0.467
CCCCCC1=C2CNC(Cc3ccccc3)(C(=O)OC)C=C2C(C)C1=O (centres undefined) | 0.648
NC(=O)N1C(=O)C2C(C1=O)C1C=C(CCCO)C2C(c2ccc(CN3CCCC3)cc2)N1Cc1sc2ccccc2c1Cl (centres undefined) | 0.832
COc1ccc([Si](C)(C)[C@@H]2[C@@H](CC(=O)N3Cc4ccccc4C[C@H]3CO)O[C@]3(C(=O)N(Cc4cccc(N5CCOC5=O)c4)c4ccccc43)[C@H]2C)cc1 | 0.038
Cc1ccc(C(C)CC(O)C2C=CC3C(=O)N(C)C(=O)C3N2Nc2ccccc2)o1 (centres undefined) | 0.656
Cc1ccc(S[C@]2(C(=O)NCCCN(C)C)CC(=O)N(C3Cc4ccccc4C3)[C@@H]2c2ccc(CO)cc2I)cc1 | 0.715

Incoming: For the molecule [N-]=[N+]=NCc1ccccc1[C@@H]1OC(c2ccc(OCCCO)cc2)=N[C@]1(Cc1ccccc1N=[N+]=[N-])C(=O)O , what composite z-score is on record?
Outgoing: 0.566

Incoming: Continue with C=C(COC)C(=O)CC[C@H](OC(=O)c1cccnc1)c1ccc(OCCO)cc1
Outgoing: 0.665

Incoming: Continue with C=CCNC(=O)[C@H]1[C@@H]2C(=O)O[C@@H](c3ccccc3)[C@@H](c3ccccc3)N2[C@@H](c2ccc(OCCO)cc2)[C@]12C(=O)Nc1ccccc12
Outgoing: 0.74
